EXPERIMENTAL_SYSTEM: progesterone receptor (Homo sapiens, UniProt P06401)
Construct: made in house; host or cells: Hi5 insect cells (cytosol)
Sequence (P06401 whole entry, species assumed): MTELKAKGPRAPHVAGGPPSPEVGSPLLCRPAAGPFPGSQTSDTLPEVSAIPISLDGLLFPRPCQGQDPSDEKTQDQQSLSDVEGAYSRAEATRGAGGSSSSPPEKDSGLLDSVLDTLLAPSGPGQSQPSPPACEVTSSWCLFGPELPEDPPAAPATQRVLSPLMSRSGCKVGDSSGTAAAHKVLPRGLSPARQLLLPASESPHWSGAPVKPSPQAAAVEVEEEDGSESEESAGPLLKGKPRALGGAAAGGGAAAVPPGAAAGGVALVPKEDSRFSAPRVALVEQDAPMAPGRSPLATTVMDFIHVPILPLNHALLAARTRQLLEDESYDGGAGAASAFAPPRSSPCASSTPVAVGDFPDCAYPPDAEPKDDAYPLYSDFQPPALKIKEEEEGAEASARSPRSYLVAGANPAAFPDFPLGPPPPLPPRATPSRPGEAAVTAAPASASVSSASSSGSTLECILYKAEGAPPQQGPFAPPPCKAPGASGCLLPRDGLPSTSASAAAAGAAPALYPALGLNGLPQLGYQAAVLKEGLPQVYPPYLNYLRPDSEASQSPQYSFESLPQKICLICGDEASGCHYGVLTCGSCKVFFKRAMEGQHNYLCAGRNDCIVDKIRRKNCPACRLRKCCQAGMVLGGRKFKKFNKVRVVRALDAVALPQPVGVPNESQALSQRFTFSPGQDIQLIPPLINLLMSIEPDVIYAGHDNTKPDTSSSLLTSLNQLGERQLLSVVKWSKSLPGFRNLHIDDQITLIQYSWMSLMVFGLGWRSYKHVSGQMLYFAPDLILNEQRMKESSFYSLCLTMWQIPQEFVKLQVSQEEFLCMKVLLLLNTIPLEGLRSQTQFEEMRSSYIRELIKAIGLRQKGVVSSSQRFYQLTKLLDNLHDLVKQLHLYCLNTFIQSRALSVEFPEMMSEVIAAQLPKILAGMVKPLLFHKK
ASSAY_TEXT: Progesterone receptor binding test
CONDITION_NOTES: ratio of competition factors CF(PR) and CF(MR)
ASSAY_METRIC: CF PR/CF MR

{"columns": ["COMPOUND", "EXPERIMENTAL_SYSTEM", "ASSAY_METRIC", "TEST_VALUE"],
 "data": [
  ["CC[C@]12CC[C@H]3[C@@H](CCC4=CC(=O)CC[C@@H]43)[C@@H]1[C@@H]1C[C@@H]1[C@@]21C=CC(=O)O1", "progesterone receptor (Homo sapiens, UniProt P06401)", "CF PR/CF MR", 1.50],
  ["CC[C@]12CC[C@H]3[C@@H]([C@@H]4C[C@@H]4C4=CC(=O)CC[C@@H]43)[C@@H]1[C@@H]1C[C@@H]1[C@@]21C=CC(=O)O1", "progesterone receptor (Homo sapiens, UniProt P06401)", "CF PR/CF MR", 5.54],
  ["C[C@@H]1CC2=CC(=O)CC[C@@H]2[C@H]2CC[C@@]3(C)[C@@H]([C@H]4C[C@H]4[C@@]34C=CC(=O)O4)[C@@H]21 [Example 14A]", "progesterone receptor (Homo sapiens, UniProt P06401)", "CF PR/CF MR", 1.57],
  ["C[C@]12CC[C@H]3[C@H]([C@@H]1[C@H]1C[C@H]1[C@@]21C=CC(=O)O1)[C@H](C1CC1)CC1=CC(=O)CC[C@@H]13 [Example 17A]", "progesterone receptor (Homo sapiens, UniProt P06401)", "CF PR/CF MR", 4.71],
  ["C[C@]12CC[C@H]3[C@@H](CCC4=C(Cl)C(=O)CC[C@@H]43)[C@@H]1[C@H]1C[C@H]1[C@@]21C=CC(=O)O1", "progesterone receptor (Homo sapiens, UniProt P06401)", "CF PR/CF MR", 0.49],
  ["C=C[C@@H]1CC2=CC(=O)CC[C@@H]2[C@H]2CC[C@@]3(C)[C@@H]([C@@H]4C[C@@H]4[C@@]34C=CC(=O)O4)[C@@H]21 [Example 25A]", "progesterone receptor (Homo sapiens, UniProt P06401)", "CF PR/CF MR", 0.65],
  ["C[C@]12CC[C@H]3[C@@H](CCC4=C(Cl)C(=O)CC[C@@H]43)[C@@H]1[C@@H]1C[C@@H]1[C@@]21C=CC(=O)O1", "progesterone receptor (Homo sapiens, UniProt P06401)", "CF PR/CF MR", 2.17],
  ["C[C@]12CC[C@H]3[C@@H](CCC4=CC(=O)CC[C@@H]43)[C@@H]1[C@H]1C[C@H]1[C@@]21C=CC(=O)O1", "progesterone receptor (Homo sapiens, UniProt P06401)", "CF PR/CF MR", 0.52],
  ["C[C@@H]1CC2=CC(=O)CC[C@@H]2[C@H]2CC[C@@]3(C)[C@@H]([C@@H]4C[C@@H]4[C@@]34C=CC(=O)O4)[C@@H]21 [Example 23A]", "progesterone receptor (Homo sapiens, UniProt P06401)", "CF PR/CF MR", 1.99]
]}

---

// reported IC50 per item
EXPERIMENTAL_SYSTEM: androgen receptor (Homo sapiens)
Sequence (P10275 whole entry, species assumed): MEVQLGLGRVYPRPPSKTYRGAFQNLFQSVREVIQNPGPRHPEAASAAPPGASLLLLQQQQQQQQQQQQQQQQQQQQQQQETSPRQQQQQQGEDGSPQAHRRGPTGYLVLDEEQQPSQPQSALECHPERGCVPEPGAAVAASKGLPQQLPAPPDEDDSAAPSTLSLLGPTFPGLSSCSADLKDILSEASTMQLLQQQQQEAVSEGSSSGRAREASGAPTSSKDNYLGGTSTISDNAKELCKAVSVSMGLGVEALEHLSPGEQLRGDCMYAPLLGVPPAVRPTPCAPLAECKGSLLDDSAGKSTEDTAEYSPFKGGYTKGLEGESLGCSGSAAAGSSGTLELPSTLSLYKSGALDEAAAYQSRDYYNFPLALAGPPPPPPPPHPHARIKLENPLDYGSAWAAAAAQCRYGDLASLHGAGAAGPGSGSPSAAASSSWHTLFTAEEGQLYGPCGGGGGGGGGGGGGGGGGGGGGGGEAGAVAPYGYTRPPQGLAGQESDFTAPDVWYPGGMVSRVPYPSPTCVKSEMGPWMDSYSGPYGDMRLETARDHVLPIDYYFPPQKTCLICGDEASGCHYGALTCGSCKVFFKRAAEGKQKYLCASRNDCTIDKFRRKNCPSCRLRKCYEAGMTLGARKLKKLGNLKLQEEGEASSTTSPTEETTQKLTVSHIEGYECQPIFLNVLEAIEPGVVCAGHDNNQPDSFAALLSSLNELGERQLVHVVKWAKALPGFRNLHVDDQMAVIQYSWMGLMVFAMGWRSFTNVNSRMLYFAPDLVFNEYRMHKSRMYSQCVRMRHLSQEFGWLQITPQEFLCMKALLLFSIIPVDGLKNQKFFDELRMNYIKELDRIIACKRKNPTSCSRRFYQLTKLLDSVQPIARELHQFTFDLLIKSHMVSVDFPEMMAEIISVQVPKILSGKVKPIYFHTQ
ASSAY_TEXT: Androgen receptor binding test
Set-up: expressed in transfected cells
CONDITION_NOTES: reference substance 3H-testosterone, cytosol from AR-expressing insect cells (Hi5); read-out: Androgen receptor IC50

{"columns": ["SMILES_RECORD", "QUANTITY_UNIT", "IC50"],
 "data": [
  ["C[C@]12CC[C@H]3[C@@H](C=CC4=CC(=O)CC[C@@H]43)[C@@H]1[C@H]1C[C@H]1[C@@]21C=CC(=O)O1", "nM", 5100],
  ["CC[C@]12CC[C@H]3[C@@H](C[C@@H](CO)C4=CC(=O)CC[C@@H]43)[C@@H]1[C@@H]1C[C@@H]1[C@@]21C=CC(=O)O1", "nM", 1000],
  ["C[C@]12CC[C@H]3[C@@H](C[C@@H](CO)C4=CC(=O)CC[C@@H]43)[C@@H]1[C@@H]1C[C@@H]1[C@@]21C=CC(=O)O1", "nM", 1000],
  ["CC[C@]12CC[C@H]3[C@@H]([C@H]4C[C@H]4C4=C(Cl)C(=O)CC[C@@H]43)[C@@H]1[C@@H]1C[C@@H]1[C@@]21C=CC(=O)O1", "nM", 4300]
]}

---

EXPERIMENTAL_SYSTEM: mineralocorticoid receptor (Homo sapiens, UniProt P08235)
Sequence (P08235 whole entry): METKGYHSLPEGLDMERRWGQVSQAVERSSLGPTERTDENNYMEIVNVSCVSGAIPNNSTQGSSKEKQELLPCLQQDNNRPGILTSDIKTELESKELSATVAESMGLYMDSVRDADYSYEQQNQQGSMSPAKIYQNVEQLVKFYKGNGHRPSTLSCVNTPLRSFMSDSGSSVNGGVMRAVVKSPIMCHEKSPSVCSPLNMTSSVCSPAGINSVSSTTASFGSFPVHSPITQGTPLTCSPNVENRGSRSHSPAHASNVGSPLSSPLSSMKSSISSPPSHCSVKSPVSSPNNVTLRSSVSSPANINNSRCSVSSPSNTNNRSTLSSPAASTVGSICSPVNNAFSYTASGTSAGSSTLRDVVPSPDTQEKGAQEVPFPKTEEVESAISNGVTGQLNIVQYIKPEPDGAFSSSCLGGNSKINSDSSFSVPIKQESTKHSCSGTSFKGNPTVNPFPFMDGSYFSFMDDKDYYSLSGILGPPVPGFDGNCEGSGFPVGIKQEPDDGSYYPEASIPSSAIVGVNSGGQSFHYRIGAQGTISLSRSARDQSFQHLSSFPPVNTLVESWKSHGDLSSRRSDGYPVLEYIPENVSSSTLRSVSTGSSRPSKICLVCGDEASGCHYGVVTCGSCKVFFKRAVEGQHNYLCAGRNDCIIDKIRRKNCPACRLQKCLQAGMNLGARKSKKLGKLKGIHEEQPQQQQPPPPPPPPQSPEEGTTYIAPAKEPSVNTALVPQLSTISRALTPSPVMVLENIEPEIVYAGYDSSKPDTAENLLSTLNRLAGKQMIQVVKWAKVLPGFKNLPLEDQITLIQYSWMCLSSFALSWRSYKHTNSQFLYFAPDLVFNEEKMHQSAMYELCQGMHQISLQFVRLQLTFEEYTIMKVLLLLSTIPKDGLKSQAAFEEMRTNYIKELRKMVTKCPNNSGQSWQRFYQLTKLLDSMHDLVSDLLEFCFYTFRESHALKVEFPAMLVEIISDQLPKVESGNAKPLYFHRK
ASSAY_TEXT: Mineralocorticoid receptor binding test
Parameters: made in house; host or cells: Hi5 insect cells (cytosol)
CONDITION_NOTES: reference substance 3H-aldosterone, cytosol from MR-expressing insect cells (Hi5)
Criterion: Mineralocorticoid receptor (MR) Competition factor meeting or surpassing 2. Met: Met. Not met: Not met.

{"columns": ["MOLECULE", "CLASS"],
 "data": [
  ["C=C[C@@H]1CC2=CC(=O)CC[C@@H]2[C@H]2CC[C@@]3(CC)[C@@H]([C@@H]4C[C@@H]4[C@@]34C=CC(=O)O4)[C@@H]21 [Example 6A]", "Not met"],
  ["CC[C@]12CC[C@H]3[C@@H]([C@@H]4C[C@@H]4C4=CC(=O)CC[C@@H]43)[C@@H]1[C@@H]1C[C@@H]1[C@@]21C=CC(=O)O1 [Example 2]", "Met"],
  ["C=C[C@@H]1CC2=CC(=O)CC[C@@H]2[C@H]2CC[C@@]3(C)[C@@H]([C@@H]4C[C@@H]4[C@@]34C=CC(=O)O4)[C@@H]21 [Example 25A]", "Met"],
  ["CC[C@]12CC[C@H]3[C@H]([C@@H]1[C@@H]1C[C@@H]1[C@@]21C=CC(=O)O1)[C@H](C)CC1=CC(=O)CC[C@@H]13 [Example 4A]", "Not met"],
  ["CC[C@]12CC[C@H]3[C@@H](C[C@@H](CO)C4=CC(=O)CC[C@@H]43)[C@@H]1[C@@H]1C[C@@H]1[C@@]21C=CC(=O)O1 [Example 10]", "Met"],
  ["CC[C@]12CC[C@H]3[C@@H]([C@H]4C[C@H]4C4=CC(=O)CC[C@@H]43)[C@@H]1[C@@H]1C[C@@H]1[C@@]21C=CC(=O)O1 [Example 1]", "Not met"],
  ["CC[C@]12CC[C@H]3[C@H]([C@@H]1[C@@H]1C[C@@H]1[C@@]21C=CC(=O)O1)[C@H](C1CC1)CC1=CC(=O)CC[C@@H]13 [Example 7A]", "Met"],
  ["CC[C@]12CC[C@H]3[C@@H](CCC4=CC(=O)CC[C@@H]43)[C@@H]1[C@@H]1C[C@@H]1[C@@]21C=CC(=O)O1 [Example 9]", "Not met"],
  ["C[C@@H]1CC2=CC(=O)CC[C@@H]2[C@H]2CC[C@@]3(C)[C@@H]([C@H]4C[C@H]4[C@@]34C=CC(=O)O4)[C@@H]21 [Example 14A]", "Not met"],
  ["CC[C@@H]1CC2=CC(=O)CC[C@@H]2[C@H]2CC[C@@]3(C)[C@@H]([C@@H]4C[C@@H]4[C@@]34C=CC(=O)O4)[C@H]12 [Example 24A]", "Not met"],
  ["CC[C@@H]1CC2=CC(=O)CC[C@@H]2[C@H]2CC[C@@]3(C)[C@@H]([C@H]4C[C@H]4[C@@]34C=CC(=O)O4)[C@H]12 [Example 15A]", "Not met"]
]}

---

Recorded EC50, one value per entry.
EXPERIMENTAL_SYSTEM: androgen receptor (Homo sapiens)
ASSAY_TEXT: Androgenic/antiandrogenic action by transactivation test (PC3 reporter cells)

{"columns": ["MOLECULE", "QUANTITY_UNIT", "EC50"],
 "data": [
  ["CC[C@]12CC[C@H]3[C@@H](C[C@@H](CO)C4=CC(=O)CC[C@@H]43)[C@@H]1[C@@H]1C[C@@H]1[C@@]21C=CC(=O)O1", "nM", 130],
  ["CC[C@]12CC[C@H]3[C@@H](C=CC4=CC(=O)CC[C@@H]43)[C@@H]1[C@@H]1C[C@@H]1[C@@]21C=CC(=O)O1", "nM", 120],
  ["C=C[C@@H]1CC2=CC(=O)CC[C@@H]2[C@H]2CC[C@@]3(CC)[C@@H]([C@@H]4C[C@@H]4[C@@]34C=CC(=O)O4)[C@@H]21", "nM", 0.98],
  ["C[C@]12CC[C@H]3[C@@H](CCC4=CC(=O)CC[C@@H]43)[C@@H]1[C@H]1C[C@H]1[C@@]21C=CC(=O)O1", "nM", 130],
  ["C[C@@H]1CC2=CC(=O)CC[C@@H]2[C@H]2CC[C@@]3(C)[C@@H]([C@H]4C[C@H]4[C@@]34C=CC(=O)O4)[C@@H]21 [Example 14A]", "nM", 13],
  ["C[C@]12CC[C@H]3[C@H]([C@@H]1[C@H]1C[C@H]1[C@@]21C=CC(=O)O1)[C@H](C1CC1)CC1=CC(=O)CC[C@@H]13 [Example 17A]", "nM", 23],
  ["C[C@]12CC[C@H]3[C@@H](CC4(CC4)C4=CC(=O)CC[C@@H]43)[C@@H]1[C@@H]1C[C@@H]1[C@@]21C=CC(=O)O1", "nM", 1.7],
  ["C[C@]12CC[C@H]3[C@@H](CCC4=CC(=O)CC[C@@H]43)[C@@H]1[C@@H]1C[C@@H]1[C@@]21C=CC(=O)O1", "nM", 5.3],
  ["CC[C@]12CC[C@H]3[C@H]([C@@H]1[C@@H]1C[C@@H]1[C@@]21C=CC(=O)O1)[C@H](C)CC1=CC(=O)CC[C@@H]13", "nM", 3],
  ["C[C@]12CC[C@H]3[C@@H](CCC4=C(Cl)C(=O)CC[C@@H]43)[C@@H]1[C@H]1C[C@H]1[C@@]21C=CC(=O)O1", "nM", 12],
  ["CC[C@@H]1CC2=CC(=O)CC[C@@H]2[C@H]2CC[C@@]3(C)[C@@H]([C@H]4C[C@H]4[C@@]34C=CC(=O)O4)[C@H]12 [Example 15A]", "nM", 11],
  ["CC[C@]12CC[C@H]3[C@@H]([C@H]4C[C@H]4C4=C(Cl)C(=O)CC[C@@H]43)[C@@H]1[C@@H]1C[C@@H]1[C@@]21C=CC(=O)O1", "nM", 250],
  ["CC[C@@H]1CC2=CC(=O)CC[C@@H]2[C@H]2CC[C@@]3(CC)[C@@H]([C@@H]4C[C@@H]4[C@@]34C=CC(=O)O4)[C@H]12", "nM", 8.3]
]}
